All values here come from patent US20160297884A1.

Biological target: T1, Human BCMA (human, UniProt Q02223 1-54, limits assumed)
T1 construct: Soluble analyte in SPR; construct not described; also called huBCMA; B-cell maturation antigen
T1 sequence (looked up): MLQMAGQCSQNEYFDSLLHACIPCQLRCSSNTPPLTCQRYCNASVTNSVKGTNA
Test: SPR, IgG immobilised, 37 C
pKd: −log10 of the molar value.
Assign true (1) whenever pKd does not fall below 9; assign false (0) whenever it does.

Some solved cases for reference:
>>> class_label("L3.PY/L1.PS/H3.AE (antibody, V domains shown, IgG) VH: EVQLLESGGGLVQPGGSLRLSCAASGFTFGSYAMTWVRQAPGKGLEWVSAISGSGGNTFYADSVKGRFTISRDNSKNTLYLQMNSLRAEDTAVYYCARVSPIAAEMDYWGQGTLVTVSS VL: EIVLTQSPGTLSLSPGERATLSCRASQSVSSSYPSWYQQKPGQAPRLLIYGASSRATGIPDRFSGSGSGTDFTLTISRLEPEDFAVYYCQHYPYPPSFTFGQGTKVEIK")
"true (1)"
>>> class_label("L3.PY/L1.FF/H2.QR (antibody, V domains shown, IgG) VH: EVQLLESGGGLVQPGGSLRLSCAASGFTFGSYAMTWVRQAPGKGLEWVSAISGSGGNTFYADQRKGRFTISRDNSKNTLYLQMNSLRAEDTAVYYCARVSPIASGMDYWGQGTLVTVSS VL: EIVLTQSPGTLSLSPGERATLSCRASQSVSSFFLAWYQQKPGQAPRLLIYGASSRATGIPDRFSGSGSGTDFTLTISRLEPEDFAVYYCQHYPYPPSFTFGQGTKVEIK")
"true (1)"
>>> class_label("L3.PY/L1.AH/H2.DY (antibody, V domains shown, IgG) VH: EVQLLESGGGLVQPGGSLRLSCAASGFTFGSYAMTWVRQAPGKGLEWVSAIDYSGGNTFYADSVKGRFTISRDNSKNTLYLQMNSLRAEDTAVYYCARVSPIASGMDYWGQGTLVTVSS VL: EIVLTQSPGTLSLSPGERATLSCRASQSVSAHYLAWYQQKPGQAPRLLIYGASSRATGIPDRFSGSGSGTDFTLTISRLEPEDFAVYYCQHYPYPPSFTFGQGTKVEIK")
"true (1)"
>>> class_label("L3.PY/L1.PS/H2.HA (antibody, V domains shown, IgG) VH: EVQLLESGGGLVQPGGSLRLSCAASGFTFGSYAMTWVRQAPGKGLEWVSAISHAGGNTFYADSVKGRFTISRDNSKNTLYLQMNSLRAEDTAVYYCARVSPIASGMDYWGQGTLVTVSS VL: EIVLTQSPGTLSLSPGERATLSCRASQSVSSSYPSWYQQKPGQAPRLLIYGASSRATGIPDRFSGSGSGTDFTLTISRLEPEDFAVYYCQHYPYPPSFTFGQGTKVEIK")
"false (0)"

Then there is this binder:
Can L3.PY/H3.AE (antibody, V domains shown, IgG) VH: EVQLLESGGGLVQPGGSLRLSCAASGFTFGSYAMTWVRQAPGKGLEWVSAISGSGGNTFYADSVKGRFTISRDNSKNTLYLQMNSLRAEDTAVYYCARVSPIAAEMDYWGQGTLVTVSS VL: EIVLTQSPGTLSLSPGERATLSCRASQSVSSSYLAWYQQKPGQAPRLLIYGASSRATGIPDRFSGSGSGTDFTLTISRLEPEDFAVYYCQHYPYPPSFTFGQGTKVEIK be said to have pKd at or above 9?
true (1)
